The molecules listed here are annotated with their % NleB1 inhibition (µM compound) / 80.
MEASURED TARGET: NleB1 (Escherichia coli)
Construct: GST-EHEC-NleB1 in pET42a (GST/His tagged), expressed in E. coli BL21 (DE3), nickel purified; some tag cleavage noted
CONDITIONS: 80 µM; inhibitor
Answer in %, number only, no unit symbol.

MOLECULE | MEASURED TARGET | % NleB1 inhibition (µM compound) / 80 [%]
CCC(=O)c1ccc(OCc2cn(CC(=O)c3ccc(O)cc3)nn2)cc1 [KUC104108N] | NleB1 (Escherichia coli) | 67.7
CCCCN1CC(COCc2ccccc2)Oc2cccc(Oc3ccc(F)cc3OC)c2S1(=O)=O (centres unmarked) [KUC106008N] | NleB1 (Escherichia coli) | 31.6
COc1cc(C(C)=O)ccc1OCc1cn(CC(=O)c2ccc(O)cc2)nn1 [KUC104076N] | NleB1 (Escherichia coli) | 61.1
O=C(Cn1cc(COc2cccc([N+](=O)[O-])c2)nn1)c1ccc(O)cc1 [KUC104086N] | NleB1 (Escherichia coli) | 32.8
COc1ccc(C(CCN2CCOCC2)c2c(OC)cc(OC)c3c2OC(=O)CC3c2ccc(OC)cc2)cc1 (centres unmarked) [KUC101459N] | NleB1 (Escherichia coli) | 18.8

Find the recorded % NleB1 inhibition (µM compound) / 80 belonging to O=C(Oc1ccc([N+](=O)[O-])cc1)O[C@H]1CC[C@@]23CCCN2C(=O)CCC[C@H]3[C@H]1Cc1ccccc1 [KUC112275N] and report it.
24.2

For O=S1(=O)CC(N2CCN(Cc3ccccc3F)CC2)CN1Cc1cn(Cc2cccc(Cl)c2)nn1 (centres unmarked) [KUC108236N] then?
12.7

For O=C1CS(=O)(=O)N(Cc2cccc(F)c2)c2ccc(Br)cc21 [KUC103319N] then?
68.8

For CCCCCCCCN1[C@@H](CC(=O)OC)c2cc(F)ccc2S1(=O)=O [KUC101907N] then?
29.9

For COc1ccc(-c2ccc(CN3C(C(C)C)C(=O)N(Cc4cn(CCC5OCCO5)nn4)CCS3(=O)=O)cc2)cn1 (centres unmarked) [KUC105137N] then?
64.5

For CCCCCC(=O)N1C[C@H](n2cc(COC(=O)c3ccccc3)nn2)[C@@H](O)C[C@@H]1c1ccc(Cl)cc1 [KUC105040N] then?
40.4

For O=C1CN(Cc2ccccc2)S(=O)(=O)c2ccccc21 [KUC101184N] then?
33.3

Taken from paper PMC6305410.
